Listing of entries alongside the reported optical density.
Assay system: T1, human ACVR2A (human, UniProt P27037 20-135, limits assumed); note: test concentration or dose not given here
T1 construct: also called activin receptor, type II A
T1 sequence (P27037 20-135 limits assumed): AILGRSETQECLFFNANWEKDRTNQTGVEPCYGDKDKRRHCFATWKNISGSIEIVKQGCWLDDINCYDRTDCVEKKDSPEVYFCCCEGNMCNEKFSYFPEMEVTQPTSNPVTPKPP
Test method notes: ELISA
The reply should be a number in OD, with the unit left off.

Example entries and their recorded answers appear below.
365_F11 (antibody, V domains shown, Group I) VH: EVQLLESGGGLVQPGGSLRLSCAASGFTFDSYSMNWVRQAPGKGLEWVSGINYNSGYKGYADSVKGRFTISRDNSKNTLYLQMNSLRAEDTAVYYCARAANWHDTHLDYWGQGTLVTVSS VL: DIQMTQSPSSLSASVGDRVTITCRASQSIISYVNWYQQKPGKAPKLLIYAATSRASGVPSRFSGSGSGTDFTLTISSLQPEDFATYYCQQSYNTPLTFGGGTKVEIK : 2.01
365_C03 (antibody, V domains shown, Group I) VH: EVQLLESGGGLVQPGGSLRLSCAASGFTFSSYGMHWVRQAPGKGLEWVAGINYNSGYKGYADSVKGRFTISRDNSKNTLYLQMNSLRAEDTAVYYCARAANWHDTHLDYWGQGTLVTVSS VL: DIQMTQSPSSLSASVGDRVTITCRASQSILTYVNWYQQKPGKAPKLVIYATTSLASGVPSRFSGSGSGTDFTLTISSLQPEDFATYYCQQSYNTPLTFGGGTKVEIK : 2.26

Okay, now this binder:
Task: Find the recorded optical density belonging to 365_B10 (antibody, V domains shown, Group I) VH: EVQLLESGGGLVQPGGSLRLSCAASGFTFDDYSMHWVRQAPGKGLEWVASINYNSGYKGYADSVKGRFTISRDNSKNTLYLQMNSLRAEDTAVYYCARAANWHDTALDYWGQGTLVTVSS VL: DIQMTQSPSSLSASVGDRVTITCRASQSILRYLNWYQQKPGKAPKLLIYAATSRASGVPSRFSGSGSGTDFTLTISSLQPEDFATYYCQQSDNLPLTFGGGTKVEIK and report it.
Result: 2.82
